species: Homo sapiens; experiment: Selectivity ratio of IC50 for human DAT to IC50 for human SERT
Reported Ratio IC50 by item:
The reply should be a number, written without any unit.

Give reported Ratio IC50 value for COC(=O)[C@@H]1C2CCC(C[C@H]1c1cccs1)O2 (mixture of isomers) 1

Note down Ratio IC50 recorded for COC(=O)[C@H]1C2CCC(C[C@H]1c1cccc(-c3nccs3)c1)O2 (mixture of isomers) 1

Specify measured Ratio IC50 for COC(=O)C1=C(c2ccc(-c3ccccc3)s2)CC2CCC1O2 (racemic) . 1
